- System: NCI-H460
- Protocol details: NCI tumour cell line growth inhibition, 48 h
The source made the active and inactive calls. No stated cut-off is given here; in the data, active = GI50 up to about 1.1 µM and inactive = higher.
Hello, when you answer, please use one of the following outcomes: active, inactive

Worked examples follow.
{"Compound": "CCOC(=O)C[C@@H]1C2(C=C[C@@]13CO3)OCC(C)(C)CO2", "Discrete label": "inactive"}
{"Compound": "c1cnn(C23C4C5C6C4C2C6C53)c1 (stereo unspecified)", "Discrete label": "inactive"}
{"Compound": "Oc1nnc(-c2ccc(F)cc2)cc1-c1ccccc1", "Discrete label": "inactive"}
{"Compound": "O=c1c2ccccc2nc2n1CCc1c-2[nH]c2ccc(Br)cc12", "Discrete label": "inactive"}
{"Compound": "CCOC(=O)c1c(N2CCOCC2)[nH]c(=O)c(C(c2ccc(Cl)c([N+](=O)[O-])c2)c2c(O)c(C(=O)OCC)c(N3CCOCC3)[nH]c2=O)c1O", "Discrete label": "inactive"}

# outcome recorded in this test, key = `O=C(O)Cc1c(-c2ccc([N+](=O)[O-])cc2)c(=O)oc2cc(O)ccc12`
inactive

Per the assay record, what outcome was assigned to `O=C(CN1CCOCC1)c1ccc2c(c1)oc(=O)n2CCN1CCCC1` ?
inactive
